assayedTarget: human recombinant GST cleaved CSNK1D (Homo sapiens, UniProt P48730)
Construct: GST (cleaved yes)
Sequence (P48730 whole entry): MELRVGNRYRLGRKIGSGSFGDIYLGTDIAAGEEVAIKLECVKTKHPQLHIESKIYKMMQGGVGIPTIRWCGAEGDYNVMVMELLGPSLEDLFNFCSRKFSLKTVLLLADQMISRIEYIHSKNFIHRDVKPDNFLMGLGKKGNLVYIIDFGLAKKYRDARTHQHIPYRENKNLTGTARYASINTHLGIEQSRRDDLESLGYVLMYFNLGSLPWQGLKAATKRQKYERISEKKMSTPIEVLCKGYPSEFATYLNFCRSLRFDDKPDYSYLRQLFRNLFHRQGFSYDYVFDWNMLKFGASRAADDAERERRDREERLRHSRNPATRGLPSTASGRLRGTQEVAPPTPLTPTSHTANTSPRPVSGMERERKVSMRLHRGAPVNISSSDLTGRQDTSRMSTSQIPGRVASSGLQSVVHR
assayInfo: Purified Enzyme Assay (ADP-Glo CSNK1D Kinase Assay)
testConditions: 2 nM CSNK1D; peptide substrate 150 μM; ATP 20 μM; 45 minutes at room temperature
quantityName: IC50 (nM)

[A] Fc1cc(-c2nn3c(c2-c2ccnc4[nH]ncc24)COCC3)ccc1Cl
[B] [2H]C([2H])([2H])C1(C([2H])([2H])[2H])Cn2nc(-c3ccc(F)cc3)c(-c3nc(C)nc4[nH]ncc34)c2CO1
Request: Given A and B , report the one with the higher recorded IC50. Let me know the label of the one you choose.
Response: A
(A: 54 nM, B: 2 nM)
